The reader will find reported growth values listed item by item below.
# System: NCI-H322M lung
# method-description: NCI-60 one-dose screen, 48 h (100 = growth as untreated, 0 = no growth, -100 = all killed)
# measurement-context: 10 µM unless noted
Compounds without any hit were thinned out: in the full panel of roughly 83,000, 20% have a hit.
property-measured: growth (%)

{"molecule": "c1cc(OCCN2CCCCCC2)ccc1CNc1ccc2nc(CCC3CCCCC3)[nH]c2c1", "quantitative-result": 81.7}
{"molecule": "COCCn1cc(-c2nc(-c3cn(CCOC)c4ncccc34)cs2)c2cc(F)ccc21", "quantitative-result": 46.9}
{"molecule": "O=[N+]([O-])c1ccccc1Sc1ccccc1[N+](=O)[O-]", "quantitative-result": 91.4}
{"molecule": "CCn1cc(C(=O)N/N=C/c2cccc(F)c2)c(=O)c2cc(F)c(N3CCNC(C)C3)c(F)c21 (stereo unspecified)", "quantitative-result": 83.4}
{"molecule": "CN(C)c1ccc([C@@H](C(=O)Nc2cccc([N+](=O)[O-])c2)N(C(=O)c2cc3ccccc3[nH]2)c2cccc([N+](=O)[O-])c2)cc1", "quantitative-result": 95}
{"molecule": "C(=C(\\C1=NCCN1)n1ccc2ccccc21)/c1ccccc1", "quantitative-result": 97.7}

----------
# System: HCT-116 colon
# method-description: NCI-60 one-dose screen, 48 h (100 = growth as untreated, 0 = no growth, -100 = all killed)
# measurement-context: 10 µM unless noted
About 83,000 compounds went through this panel and 20% of them were active in at least one assay; those are over-represented in the sample as a whole.
Each item that follows carries a reported growth.

{"molecule": "Cc1cc(O)cc(-c2nn(C)cc2-c2cc(N3CCOCC3)nc(-c3cccnc3)n2)c1", "growth (%)": 17.3}
{"molecule": "COc1ccc2c(c1)CC[C@@H]1[C@@H]2CC[C@]2(C)c3c(cc(C#N)c4c3sc3ccccc34)C[C@@H]12", "growth (%)": 108}
{"molecule": "CCOc1ncc([N+](=O)[O-])c(OCC)n1", "growth (%)": 105}
{"molecule": "COc1ccccc1S(=O)(=O)Nc1ccc2c3c(cc(CCC(=O)NCCCCNc4cccc5c4C(=O)N(C4CCC(=O)NC4=O)C5=O)cc13)C(=O)N2C (centres undefined)", "growth (%)": 46.2}

----------
# Test system: SK-OV-3 ovarian
# method-description: NCI-60 one-dose screen, 48 h
# measurement-context: 10 µM unless noted
This is part of a sample that, as a whole, favours compounds with a hit. Of some 83,000 tested, about 20% had one in any assay. Calls of active or inactive are those of the source. How the source made its calls: active means growth percent below 10; inactive means the rest.
Outcome codes: yes (active), no (inactive)

{"smi": "C#COc1cccc(Nc2ncnc3cc(NC(=O)[C@H](C)Cl)ccc23)c1", "target-entity": "SK-OV-3 ovarian", "assigned-label": "yes"}
{"smi": "COc1cccc(-c2cn3nc(-c4cn(C)c5ccccc45)sc3n2)c1", "target-entity": "SK-OV-3 ovarian", "assigned-label": "no"}
{"smi": "CC(C)(C)CC(C)(C)Nc1c(-c2c(O)c3ccccc3oc2=O)nc2sc3ccccc3n12", "target-entity": "SK-OV-3 ovarian", "assigned-label": "no"}
{"smi": "CN1CCN(Cc2ccc(NC(=O)c3cncc(C#Cc4cnc(N)cc4C#N)c3)cc2C(F)(F)F)CC1", "target-entity": "SK-OV-3 ovarian", "assigned-label": "yes"}
{"smi": "CC(C)NS(=O)(=O)/N=C1\\NC(=O)NC1=C(Cl)Cl", "target-entity": "SK-OV-3 ovarian", "assigned-label": "no"}

----------
# Tested on: COLO 205 colon
# method-description: NCI-60 one-dose screen, 48 h
# measurement-context: 10 µM unless noted
About 83,000 compounds went through this panel and 20% of them were active in at least one assay; those are over-represented in the sample as a whole. The source made the active and inactive calls. Rule for the calls: active = growth percent below 10; inactive = the rest.
Labels: 1.0 = active, 0.0 = inactive

{"compound": "CN1CCN(c2ccc(NC3=CC(=O)c4ncncc4C3=O)cc2)CC1", "assigned-label": 1.0}
{"compound": "c1cc(OCCCCCOc2cccc(-c3nc4ccccc4[nH]3)c2)cc(-c2nc3ccccc3[nH]2)c1", "assigned-label": 1.0}
{"compound": "CCCC(=O)NC(c1ccc2c(c1)OCO2)c1cc(Cl)c2cccnc2c1O (stereo unspecified)", "assigned-label": 0.0}
{"compound": "c1cc(OCCN2CCCC2)ccc1CNc1ccc2nc(CCC3CCCCC3)[nH]c2c1", "assigned-label": 1.0}
{"compound": "CCN(CC)c1ccc(-c2cc(-c3cc(OC)c(OC)c(OC)c3)nc(N3CCC(O)CC3)c2C#N)cc1", "assigned-label": 1.0}
{"compound": "CCCCCCCCn1ccc2cc(NC(=O)CN=[N+]=[N-])ccc21", "assigned-label": 0.0}

----------
# Tested on: A549/ATCC NSCLC
# method-description: NCI-60 one-dose screen, 48 h (100 = growth as untreated, 0 = no growth, -100 = all killed)
# measurement-context: 10 µM unless noted
This is part of a sample that, as a whole, favours compounds with a hit. Of some 83,000 tested, about 20% had one in any assay.
Listed next: entries and their corresponding growth.

{"smi": "COC(=O)Cn1c2c(c3c(OC)cccc31)C(=O)c1ccccc1-2", "growth [%]": 100}
{"smi": "C#Cc1cccc(Nc2ncnc3cc(NC(=O)CCl)ccc23)c1", "growth [%]": -23.7}
{"smi": "O=S(O)c1cc(Cl)cc(Cl)c1OCc1ccccc1", "growth [%]": 90.2}

----------
This section presents compounds with their documented growth values.
# Tested on: SK-MEL-5 melanoma
# method-description: NCI-60 one-dose screen, 48 h (100 = growth as untreated, 0 = no growth, -100 = all killed)
# measurement-context: 10 µM unless noted
About 83,000 compounds went through this panel and 20% of them were active in at least one assay; those are over-represented in the sample as a whole.

{"compound": "CC1(C)CC[C@]23CC[C@]4(C)[C@H](CC[C@@H]5[C@@]6(C)C/C(=C/O)C(=O)C(C)(C)[C@@H]6CC[C@]54C)[C@H]2[C@H]1OC3", "growth [%]": 101}
{"compound": "CCn1cc(C(=O)O)c(=O)c2cc(F)c(N3CCN(CC(=O)Nc4ccccc4)C(C)C3)c(F)c21 (stereo not drawn)", "growth [%]": 99.2}
{"compound": "Cc1cccc(NC(=O)Cn2cc(CN3CCN(c4ccnc5cc(Cl)ccc45)CC3)nn2)c1", "growth [%]": 68.8}
{"compound": "O=C(/C=C/c1ccccc1)N(C1CCCCC1)C1CCCCC1", "growth [%]": 89.9}
{"compound": "O=C(/C=C/c1ccccc1Cl)c1cccc(OCCCCOc2cccc(C(=O)/C=C/c3ccccc3Cl)c2)c1", "growth [%]": 99.5}
{"compound": "Nc1ncccc1O", "growth [%]": 101}
{"compound": "COc1cc(/C=N/NC(=O)c2ccc(-n3cc(-c4ccccc4)nn3)cc2)cc(OC)c1OC", "growth [%]": 57.2}
{"compound": "CCN(CC)CCn1c2ccc(OC)cc2c2sc3cc(O)ccc3c(=O)c21", "growth [%]": 76.1}
{"compound": "COC12C=C/C(=C(/C(=O)OCc3cncnc3)C(=O)CCCCCCCCC3(OC)C=C/C(=C(/C(=O)OCc4cncnc4)C(=O)CCCCCCCC1)O3)O2", "growth [%]": -79.9}
{"compound": "O=C1/C(=C/c2c[nH]c(=O)[nH]c2=O)SC(=S)N1Cc1ccccc1", "growth [%]": 100}
{"compound": "CCN(CC)CCCNc1cc(OC)c(OC)c2cccnc12", "growth [%]": 62.4}
{"compound": "COCCn1cc(-c2nc(-c3c[nH]c4ncccc34)cs2)c2ccccc21", "growth [%]": 34.3}
{"compound": "COc1ccc(CN2C(=O)OC(C)(COC(C)=O)C2=O)cc1 (stereo not drawn)", "growth [%]": 101}
{"compound": "Cn1c2ccccc2c2c3c(c4c5cc(Br)ccc5n(C)c4c21)C(=O)N(O)C3=O", "growth [%]": -35.4}
{"compound": "N#CC1=C(N)Oc2c(sc3c(F)cccc23)C1c1ccc([N+](=O)[O-])cc1 (stereo not drawn)", "growth [%]": -95.9}
{"compound": "CCOC(=O)/C=C1\\S/C(=N\\Nc2cc(=O)[nH]c3ccc(Br)cc23)N(c2ccccc2)C1=O", "growth [%]": 98.3}
{"compound": "CC/C(=C(\\c1ccc(Cl)cc1)c1ccc(OCCN2CCCCC2)cc1)c1ccc(O)cc1", "growth [%]": 2.53}
{"compound": "CCCCCCCCCCCCCCCCCCOc1ccccc1CC(=O)NCC[N+](C)(C)C", "growth [%]": 63.7}

----------
# Test system: UACC-257 melanoma
# method-description: NCI-60 one-dose screen, 48 h
# measurement-context: 10 µM unless noted
This is part of a sample that, as a whole, favours compounds with a hit. Of some 83,000 tested, about 20% had one in any assay. The source made the active and inactive calls. Rule for the calls: active = growth percent below 10; inactive = the rest.
Outcome codes: active, inactive

{"compound": "CC(=O)c1ccc(-n2cc(CN3CCN(c4cc5c(cc4F)c(=O)c(C(=O)O)cn5C4CC4)CC3)nn2)cc1", "assigned-label": "inactive"}
{"compound": "C=C1C(=O)O[C@H]2[C@H]1CC/C(CNC(=O)Cc1c[nH]c3ccccc13)=C\\CC[C@@]1(C)O[C@@H]21", "assigned-label": "active"}
{"compound": "O=C1OCC2=C1C(c1ccccc1)c1cc3c(cc1N2CCO)OCCO3 (centres undefined)", "assigned-label": "inactive"}
{"compound": "COC(=O)c1c2c(c[n+]([O-])c1C)C(=O)C=C(NCc1ccccc1)C2=O", "assigned-label": "active"}
{"compound": "COc1ccccc1S(=O)(=O)Nc1ccc2c3c(cc(CCC(=O)NCCCCNc4cccc5c4C(=O)N(C4CCC(=O)NC4=O)C5=O)cc13)C(=O)N2C (centres undefined)", "assigned-label": "inactive"}
{"compound": "CCCOC(=O)Nc1nc2ccc(SCC)cc2s1", "assigned-label": "inactive"}
{"compound": "c1ccc(-c2nc3ccccc3[nH]2)c(OCCCCCOc2ccccc2-c2nc3ccccc3[nH]2)c1", "assigned-label": "inactive"}
{"compound": "Nc1[nH]nc2nc(-c3ccccc3)n3c4ccccc4nc3c12", "assigned-label": "inactive"}
{"compound": "NC(=O)c1ccccc1OCC(=O)Nc1ccc(Cl)c(Cl)c1", "assigned-label": "inactive"}
{"compound": "Clc1ccc(Nc2nnc(CNc3ccccc3)c3ccccc23)cc1", "assigned-label": "active"}
{"compound": "O=C(Cn1nc(-c2cccc3ccccc23)ccc1=O)NCc1cccc(Cl)c1", "assigned-label": "inactive"}
{"compound": "Cc1ccc(NC(=O)c2sc3nc(C)c(C(O)c4ccccc4)cc3c2N)cc1 (centres undefined)", "assigned-label": "inactive"}
{"compound": "COc1ccc(/C=C2\\c3cc(OC)c(OC)c(OC)c3CC[C@@H]2O)cc1F", "assigned-label": "inactive"}
{"compound": "CN(C)/C(N)=N/N=C(\\c1ccccc1)c1ccccn1", "assigned-label": "inactive"}
